Biological target: UniProt:P30968
Sequence (P30968 whole entry): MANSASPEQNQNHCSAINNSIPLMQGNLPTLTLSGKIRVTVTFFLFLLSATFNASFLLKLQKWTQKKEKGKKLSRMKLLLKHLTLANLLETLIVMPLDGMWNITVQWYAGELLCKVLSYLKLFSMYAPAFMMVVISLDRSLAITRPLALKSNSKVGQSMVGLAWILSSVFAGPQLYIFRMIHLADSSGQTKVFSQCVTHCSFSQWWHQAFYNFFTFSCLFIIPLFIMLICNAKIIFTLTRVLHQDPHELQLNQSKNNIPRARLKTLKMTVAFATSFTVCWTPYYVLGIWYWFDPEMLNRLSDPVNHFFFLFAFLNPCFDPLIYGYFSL
Assay: Human GnRH receptor functional assay (intracellular calcium release)
Details: CHO-K1 cells expressing human GnRH receptors; block of GnRH (EC80)-induced calcium release; 20 min preincubation
Attribute Measured: IC50 (nM)
Numeric answer only, unit nM assumed.

# IC50 of COc1nc(N2CCC(N(C)C)C2)nc(OC)c1NC(=O)c1ccc(Oc2cc([Si](C)(C)C)ccc2C)o1 (stereo not shown) = 160
